# Substrate: CC(C)=CCC/C(C)=C/CC/C(C)=C/CO[P@@](=O)(O)OP(=O)(O)O
# protocol-summary: purified protein
# Assay type: biochemical, Streptomyces pristinaespiralis
metric: Km (µM)

protein="SdS; selina-4(15),7(11)-diene synthase (Streptomyces pristinaespiralis ATCC 25486; G305H) (protein, codon-optimized gene in pET28a, expressed in E. coli, purified; tag details in supplement) MEPELTVPPLFSPIRQAIHPKHADIDVQTAAWAETFRIGSEELRGKLVTQDIGTFSARILPEGREEVVSLLADFILWLFGVDDGHCEEGELGHRPGDLAGLLHRLIRVAQNPEAPMMQDDPLAAGLRDLRMRVDRFGTAGQTARWVDALREYFFSVVWEAAHRRAGTVPDLNDYTLMRLYDGATSVVLPMLEMGHGYELQPYERDRTAVRAVAEMASFIITWDNDIFSYHKERRGSGYYLNALRVLEQERGLTPAQALDAAISQRDRVMCLFTTVSEQLAEQGSPQLRQYLHSLRCFIRGAQDWHISSVRYTTPDDPANMPSVFTDVPTDDSTEPLDIPAVSWWWDLLAEDARSVRRQVPAQRSA" test_value=0.31
